- target entity: membrane-bound human MAO-B (Homo sapiens)
- Sequence (P27338 1-520): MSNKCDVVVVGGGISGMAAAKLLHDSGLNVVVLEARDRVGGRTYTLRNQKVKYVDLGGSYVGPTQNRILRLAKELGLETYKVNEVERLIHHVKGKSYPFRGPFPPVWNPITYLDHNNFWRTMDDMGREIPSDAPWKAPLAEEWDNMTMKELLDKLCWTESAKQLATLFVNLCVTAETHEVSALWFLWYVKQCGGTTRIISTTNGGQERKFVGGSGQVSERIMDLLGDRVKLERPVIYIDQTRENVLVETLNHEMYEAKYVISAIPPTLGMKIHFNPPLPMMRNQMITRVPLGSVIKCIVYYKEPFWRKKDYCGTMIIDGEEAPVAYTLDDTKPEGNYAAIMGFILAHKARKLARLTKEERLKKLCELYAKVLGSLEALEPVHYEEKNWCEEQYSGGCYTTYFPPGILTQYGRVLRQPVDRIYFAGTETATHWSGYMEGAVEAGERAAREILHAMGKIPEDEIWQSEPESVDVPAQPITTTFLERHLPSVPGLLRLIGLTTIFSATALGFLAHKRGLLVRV
- assay comment: MAO-B inhibition, H2O2/horseradish peroxidase coupled fluorescence assay with tyramine
- Format: biochemical
- condition summary: tyramine at 2 × KM; seven concentrations 0.01–300 µM; ± s.d., two independent experiments; read-out: IC50 (μM) hMAO-B
Each entry below lists one item and its recorded IC50 value.
recorded endpoint: IC50

compound | measured
O=C(CN1C(=O)c2cc(Cl)ccc2NC1c1ccccc1)NN=Cc1ccc(O)cc1 (stereo not shown) | 11 µM
COc1cc(C=NNC(=O)Cn2c(C)nc3ccccc3c2=O)ccc1O [12d] | 3.62 µM
COC(=O)CN1C(=O)c2ccccc2NC1c1ccccc1 (stereo not shown) | 5.28 µM
Cc1nc2ccccc2c(=O)n1/N=C/c1ccc(O)cc1 [14b] | 4.64 µM
COc1cc(/C=N/n2c(C)nc3ccccc3c2=O)ccc1O [14d] | 5.93 µM
COc1cc(/C=N/NC(=O)CNC(=O)c2cc(Cl)ccc2/N=C/c2ccccc2)ccc1O | 9 µM
COc1cc(C=NNC(=O)CN2C(=O)c3cc(Cl)ccc3NC2c2ccccc2)ccc1O (stereo not shown) | 0.44 µM
COc1ccc2c(c1)[nH]c1c(C)nccc12 [harmine, reference compound] | 11.6 µM
COc1cc(C=NNC(=O)CN2C(=O)c3ccccc3NC2c2ccccc2)ccc1O (stereo not shown) | 0.75 µM
Cc1nc2ccccc2c(=O)n1CC(=O)NN | > 100 µM
Cc1nc2ccccc2c(=O)n1CC(=O)NN=Cc1ccc(O)cc1 [12b] | > 100 µM
COc1ccc(/C=N/n2c(C)nc3ccccc3c2=O)cc1 [14c] | 6.75 µM
O=C(CN1C(=O)c2ccccc2NC1c1ccccc1)NN=Cc1ccc(O)cc1 (stereo not shown) | 83 µM

----------
Each entry below lists one item and its recorded maximum inhibition (%) hMAO-B value.
- target entity: UniProt:P27338
- assay comment: MAO-B inhibition, H2O2/horseradish peroxidase coupled fluorescence assay with tyramine
- Assay type: biochemical
- condition summary: from dose–response curve; in parentheses after IC50, given if less than 95%
recorded endpoint: maximum inhibition (%) hMAO-B

compound | target entity | recorded endpoint | units of measure | measured
COc1ccc(/C=N/n2c(C)nc3ccccc3c2=O)cc1 [14c] | UniProt:P27338 | maximum inhibition (%) hMAO-B | % | 73
COC(=O)CN1C(=O)c2ccccc2NC1c1ccccc1 (stereo not shown) [3a] | UniProt:P27338 | maximum inhibition (%) hMAO-B | % | 40
Cc1nc2ccccc2c(=O)n1/N=C/c1ccccc1 [14a] | UniProt:P27338 | maximum inhibition (%) hMAO-B | % | 77
Cc1nc2ccccc2c(=O)n1/N=C/c1ccc(O)cc1 [14b] | UniProt:P27338 | maximum inhibition (%) hMAO-B | % | 77
COc1cc(/C=N/n2c(C)nc3ccccc3c2=O)ccc1O [14d] | UniProt:P27338 | maximum inhibition (%) hMAO-B | % | 77

----------
- target entity: membrane-bound human MAO-B (Homo sapiens)
- assay comment: MAO-B inhibition, H2O2/horseradish peroxidase coupled fluorescence assay with tyramine
- Assay type: biochemical
- condition summary: read-out: % inhibition at 10 μM hMAO-B; 10 μM compound; tyramine 0.32 mM (2 × KM); average of two independent experiments
- Experimental: Incomplete inhibition of activity could arise either from indirect effects on these enzymes or from the compounds acting as substrates at the highest concentrations. The activity of MAO was determined using the coupled assay method of [41, 42] in which the product, H2O2, acts with horseradish peroxidase to convert 10-acetyl-3,7-dihydroxyphenoxazine to the fluorescent resorufin. […] The data were analysed using the equation for a three-parameter curve in Graphpad PRISM v. […]
Outcome label depends on inhibition at 10 µM relative to 30%: at/above gives criterion met, below gives criterion not met.

molecule | target entity | label
COC(=O)CN1C(=O)c2cc(Cl)ccc2NC1c1ccccc1OC (stereo not drawn) [3d] | membrane-bound human MAO-B (Homo sapiens) | criterion not met
Cc1nc2ccccc2c(=O)n1CC(=O)NN [compound 11] | membrane-bound human MAO-B (Homo sapiens) | criterion not met
COc1ccc(C=NNC(=O)Cn2c(C)nc3ccccc3c2=O)cc1 [12c] | membrane-bound human MAO-B (Homo sapiens) | criterion not met
COC(=O)CN1C(=O)c2ccccc2NC1c1ccccc1 (stereo not drawn) [3a] | membrane-bound human MAO-B (Homo sapiens) | criterion met
COC(=O)CN1C(=O)c2cc(Cl)ccc2NC1c1ccccc1 (stereo not drawn) [3b] | membrane-bound human MAO-B (Homo sapiens) | criterion met
O=C(CN1C(=O)c2ccccc2NC1c1ccccc1)NN=Cc1ccc(O)cc1 (stereo not drawn) [5b] | membrane-bound human MAO-B (Homo sapiens) | criterion met
COc1ccc(C2Nc3ccc(Cl)cc3C(=O)N2CC(=O)NN)cc1 (stereo not drawn) [4c] | membrane-bound human MAO-B (Homo sapiens) | criterion not met
COc1cc(C=NNC(=O)CN2C(=O)c3ccccc3NC2c2ccccc2)ccc1O (stereo not drawn) [5d] | membrane-bound human MAO-B (Homo sapiens) | criterion met
Cc1nc2ccccc2c(=O)n1CC(=O)NN=Cc1ccccc1 [12a] | membrane-bound human MAO-B (Homo sapiens) | criterion not met
COC(=O)CN1C(=O)c2cc(Cl)ccc2NC1c1ccc(OC)cc1 (stereo not drawn) [3c] | membrane-bound human MAO-B (Homo sapiens) | criterion not met
O=C(CN1C(=O)c2cc(Cl)ccc2NC1c1ccccc1)NN=Cc1ccc(O)cc1 (stereo not drawn) [5g] | membrane-bound human MAO-B (Homo sapiens) | criterion met
COc1cc(C=NNC(=O)Cn2c(C)nc3ccccc3c2=O)ccc1O [12d] | membrane-bound human MAO-B (Homo sapiens) | criterion met
NNC(=O)CN1C(=O)c2cc(Cl)ccc2NC1c1ccccc1 (stereo not drawn) [4b] | membrane-bound human MAO-B (Homo sapiens) | criterion met
COc1cc(/C=N/n2c(C)nc3ccccc3c2=O)ccc1O [14d] | membrane-bound human MAO-B (Homo sapiens) | criterion met
COc1ccccc1C1Nc2ccc(Cl)cc2C(=O)N1CC(=O)NN (stereo not drawn) [4d] | membrane-bound human MAO-B (Homo sapiens) | criterion not met
COc1ccc2c(c1)[nH]c1c(C)nccc12 [harmine, reference compound] | membrane-bound human MAO-B (Homo sapiens) | criterion not met
O=C(CN1C(=O)c2cc(Cl)ccc2NC1c1ccccc1)NN=Cc1ccccc1 (stereo not drawn) [5e] | membrane-bound human MAO-B (Homo sapiens) | criterion not met
COc1ccc(/C=N/n2c(C)nc3ccccc3c2=O)cc1 [14c] | membrane-bound human MAO-B (Homo sapiens) | criterion met
Cc1nc2ccccc2c(=O)n1/N=C/c1ccc(O)cc1 [14b] | membrane-bound human MAO-B (Homo sapiens) | criterion met
COc1cc(C=NNC(=O)CN2C(=O)c3cc(Cl)ccc3NC2c2ccccc2)ccc1O (stereo not drawn) [5h] | membrane-bound human MAO-B (Homo sapiens) | criterion met
Cc1nc2ccccc2c(=O)n1CC(=O)NN=Cc1ccc(O)cc1 [12b] | membrane-bound human MAO-B (Homo sapiens) | criterion not met

----------
- target entity: membrane-bound human MAO-A (Homo sapiens, UniProt P21397)
- Sequence (P21397 whole entry): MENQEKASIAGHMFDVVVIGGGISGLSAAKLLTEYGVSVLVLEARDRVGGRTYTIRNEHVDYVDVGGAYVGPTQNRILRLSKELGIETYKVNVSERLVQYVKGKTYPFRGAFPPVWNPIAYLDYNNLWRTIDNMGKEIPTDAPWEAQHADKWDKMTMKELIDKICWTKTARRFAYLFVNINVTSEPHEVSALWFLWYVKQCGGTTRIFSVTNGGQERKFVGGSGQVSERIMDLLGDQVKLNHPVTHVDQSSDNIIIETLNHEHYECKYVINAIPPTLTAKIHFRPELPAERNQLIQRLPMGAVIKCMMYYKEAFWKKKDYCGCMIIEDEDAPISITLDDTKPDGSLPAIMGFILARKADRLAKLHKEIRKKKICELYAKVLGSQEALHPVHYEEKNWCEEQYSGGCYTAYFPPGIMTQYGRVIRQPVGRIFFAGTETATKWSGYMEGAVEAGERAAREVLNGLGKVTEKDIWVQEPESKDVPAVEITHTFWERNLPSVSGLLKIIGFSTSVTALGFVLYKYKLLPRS
- assay comment: MAO-A inhibition, H2O2/horseradish peroxidase coupled fluorescence assay with tyramine
- Format: biochemical
- condition summary: tyramine at 2 × KM; seven concentrations 0.01–300 µM; ± s.d., two independent experiments; read-out: IC50 (μM) hMAO-A
recorded endpoint: IC50 (µM)

molecule | target entity | recorded endpoint | units of measure | measured
O=C(CN1C(=O)c2cc(Cl)ccc2NC1c1ccccc1)NN=Cc1ccc(O)cc1 (stereo not shown) | membrane-bound human MAO-A (Homo sapiens, UniProt P21397) | IC50 | µM | 4.34
COc1cc(C=NNC(=O)Cn2c(C)nc3ccccc3c2=O)ccc1O [12d] | membrane-bound human MAO-A (Homo sapiens, UniProt P21397) | IC50 | µM | 1.41
COc1cc(C=NNC(=O)CN2C(=O)c3cc(Cl)ccc3NC2c2ccccc2)ccc1O (stereo not shown) | membrane-bound human MAO-A (Homo sapiens, UniProt P21397) | IC50 | µM | 0.31
COc1cc(C=NNC(=O)CN2C(=O)c3ccccc3NC2c2ccccc2)ccc1O (stereo not shown) | membrane-bound human MAO-A (Homo sapiens, UniProt P21397) | IC50 | µM | 0.27
